- Tested on: rodent lifetime carcinogenesis bioassay, tumor incidence TD50
- protocol summary: carcinogenic potency in animals, long-term in vivo studies, CPDB compilation (AID 1745844)
- stated conditions: rat; strain Fischer 344; females; in drinking water; site: esophagus; lesion: several types; types named in the paper; dosed 30 weeks; study length 133 weeks
test readout: TD50

Value of TD50 reported for the compound O=NN1CCCN(N=O)CC1 is 0.253 mg/kg/day

====

- Tested on: rodent lifetime carcinogenesis bioassay, tumor incidence TD50
- protocol summary: carcinogenic potency in animals, long-term in vivo studies, CPDB compilation (AID 1745844)
- stated conditions: rat; strain Sprague-Dawley; males; by gavage; site: liver; lesion: hepatocellular carcinoma; dosed 26 weeks; study length 77 weeks
I'd appreciate it if you could supply TD50 values for the items below.
Express it in mg/kg/day; write the number only.

Value of TD50 reported for the molecule CC(C)N=[N+]([O-])C(C)C is 0.00736

Value of TD50 reported for the molecule CCCN=[N+]([O-])CCC is 0.00736

====

- Test system: rodent lifetime carcinogenesis bioassay, tumor incidence TD50
- protocol summary: carcinogenic potency in animals, long-term in vivo studies, CPDB compilation (AID 1745844)
- stated conditions: rat; strain Fischer 344; males; by gavage; site: forestomach; lesion: squamous-cell papilloma; dosed 104 weeks; study length 104 weeks
test readout: TD50 (mg/kg/day)
Express it in mg/kg/day; write the number only.

# value of TD50, rodent lifetime carcinogenesis bioassay, tumor incidence TD50, item C/C=C/C=C/C=O = 46.1

# value of TD50, rodent lifetime carcinogenesis bioassay, tumor incidence TD50, item CCCCCCCC(=O)OCC(COC(=O)CCCCCCC)OC(=O)CCCCCCC = 15700

====

- Tested on: rodent lifetime carcinogenesis bioassay, tumor incidence TD50
- protocol summary: carcinogenic potency in animals, long-term in vivo studies, CPDB compilation (AID 1745844)
- stated conditions: rat; strain BR 46; males; by gavage; site: any site (literature study); lesion: several types; types named in the paper; dosed 52 weeks; study length 104 weeks
test readout: TD50 (mg/kg/day)
Express it in mg/kg/day; write the number only.

Value of TD50 reported for the molecule CS(=O)(=O)OCCCCOS(C)(=O)=O is 0.0931

====

- Test system: rodent lifetime carcinogenesis bioassay, tumor incidence TD50
- protocol summary: carcinogenic potency in animals, long-term in vivo studies, CPDB compilation (AID 1745844)
- stated conditions: mouse; strain B6C3F1; males; in feed; site: lung; lesion: alveolar/bronchiolar adenoma; dosed 103 weeks; study length 104 weeks
Active and inactive are the calls of the source. How the calls were made is not given here.
Answer with one of the outcomes active, inactive

[Q] Returns: the outcome recorded for CCOC(=O)/C(Cl)=N/Nc1ccccc1 in this assay.
[A] inactive

[Q] Returns: the outcome recorded for CC(=O)Nc1ccc(N=Nc2cc(C)ccc2O)cc1 in this assay.
[A] inactive

[Q] Returns: the outcome recorded for Nc1c(Br)cc(Br)c2c1C(=O)c1ccccc1C2=O in this assay.
[A] active

====

- System: rodent lifetime carcinogenesis bioassay, tumor incidence TD50
- protocol summary: carcinogenic potency in animals, long-term in vivo studies, CPDB compilation (AID 1745844)
- stated conditions: mouse; strain B6C3F1; males; in feed; site: liver + thyroid gland; lesion: hepatocellular adenoma + hepatocellular carcinoma + follicular-cell adenoma; dosed 104 weeks; study length 104 weeks
test readout: TD50 (mg/kg/day)
Express it in mg/kg/day; write the number only.

Value of TD50 reported for the molecule Cc1ncc[nH]1 is 378
